Test system: STAT6 protein phosphorylation in TF-1 cells
Experiment: STAT6 phosphorylation inhibition in vitro in TF-1 cells with IL-4
Assay type: cell-based
Conditions: Homo sapiens, IL-4 20 ng/mL, 1 hour, Western blot densitometry
pIC50: −log10 of the molar value.
MEASUREMENT LABEL: pIC50

>  <SMILES>
CC1(C)CN(c2ccc(C#N)nn2)CC[C@H]1Nc1c(C(N)=O)cnc2cc(-c3ccc(N4CCOCC4)nc3)nn12

>  <ASSAYED SYSTEM>
STAT6 protein phosphorylation in TF-1 cells

>  <pIC50>
6.94

$$$$
>  <SMILES>
CC1(C)CN(c2ccc(C#N)nn2)CC[C@H]1Nc1c(C(N)=O)cnc2cc(-c3ccnc(N4CCOCC4)c3)nn12

>  <ASSAYED SYSTEM>
STAT6 protein phosphorylation in TF-1 cells

>  <pIC50>
6.67

$$$$
>  <SMILES>
COc1cccc(-c2cc3ncc(C(N)=O)c(N[C@@H]4CCN(c5ccc(C#N)nn5)CC4(C)C)n3n2)n1

>  <ASSAYED SYSTEM>
STAT6 protein phosphorylation in TF-1 cells

>  <pIC50>
6.94

$$$$

A: Cc1cc(-c2cc3ncc(C(N)=O)c(N[C@@H]4CCN(c5ccc(C#N)nn5)CC4(C)C)n3n2)ccn1
B: COc1ccc(-c2cc3ncc(C(N)=O)c(N[C@@H]4CCN(c5ccc(C#N)nn5)CC4(C)C)n3n2)cn1
Input: Consider A and B . Which of these has its pIC50 at a higher number? Output the label that corresponds to your choice.
Output: A

The origin of these recorded values is patent US11072619B2.
